Origin of values: the supplement of paper PMC5998384

Readings of solubility change mitosis (log2) for the listed sequences
Tested on: HeLa Kyoto;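 further: synchronized HeLa Kyoto cells (double thymidine block for G1/S, nocodazole release for mitosis), protein amounts in NP-40 versus SDS lysates quantified by mass spectrometry, three biological replicates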
Experimental details: solubility change mitosis vs G1/S (difference of NP-40 vs SDS log2 ratios) (log2 ratio difference); higher = more soluble in mitosis
Answer as a number with no unit attached.

Value lookup for solubility change mitosis (log2); key = MVQAWYMDDAPGDPRQPHRPDPGRPVGLEQLRRLGVLYWKLDADKYENDPELEKIRRERNYSWMDIITICKDKLPNYEEKIKMFYEEHLHLDDEIRYILDGSGYFDVRDKEDQWIRIFMEKGDMVTLPAGIYHRFTVDEKNYTKAMRLFVGEPVWTAYNRPADHFEARGQYVKFLAQTA [ADI1] -0.0474

Value lookup for solubility change mitosis (log2); key = MAPALLLIPAALASFILAFGTGVEFVRFTSLRPLLGGIPESGGPDARQGWLAALQDRSILAPLAWDLGLLLLFVGQHSLMAAERVKAWTSRYFGVLQRSLYVACTALALQLVMRYWEPIPKGPVLWEARAEPWATWVPLLCFVLHVISWLLIFSILLVFDYAELMGLKQVYYHVLGLGEPLALKSPRALRLFSHLRHPVCVELLTVLWVVPTLGTDRLLLAFLLTLYLGLAHGLDQQDLRYLRAQLQRKLHLLSRPQDGEAE [NRM] 0.167

# evaluate next
Value lookup for solubility change mitosis (log2); key = MNPESSIFIEDYLKYFQDQVSRENLLQLLTDDEAWNGFVAAAELPRDEADELRKALNKLASHMVMKDKNRHDKDQQHRQWFLKEFPRLKRELEDHIRKLRALAEEVEQVHRGTTIANVVSNSVGTTSGILTLLGLGLAPFTEGISFVLLDTGMGLGAAAAVAGITCSVVELVNKLRARAQARNLDQSGTNVAKVMKEFVGGNTPNVLTLVDNWYQVTQGIGRNIRAIRRARANPQLGAYAPPPHVIGRISAEGGEQVERVVEGPAQAMSRGTMIVGAATGGILLLLDVVSLAYESKHLLEGAKSESAEELKKRAQELEGKLNFLTKIHEMLQPGQDQ [APOL2] 0.0238
